# EXPERIMENTAL PROTOCOL: in vivo
# RECORDED CONDITIONS: C57BL/6J, mouse, po, 10 mg/kg
MEASURE NAME: Tmax (min)

[[record]]
smiles_code = "CC(C)C[C@H](N)c1cc(C(F)(F)F)ccc1N1CCN(C(=O)[C@@H](Cc2ccc(Cl)cc2)N2CCCC2=O)CC1"
reading = 30

[[record]]
smiles_code = "CC(C)C[C@H](N)c1cc(C(F)(F)F)ccc1N1CCN(C(=O)[C@@H](Cc2ccc(Cl)cc2Cl)N2CCNCC2=O)CC1"
reading = 30


---

# EXPERIMENTAL PROTOCOL: in vivo
# RECORDED CONDITIONS: C57BL/6J, mouse, brain, iv, 5 mg/kg
MEASURE NAME: concentration at 4 h (ng/g)

I: CC(C)C[C@H](N)c1cc(C(F)(F)F)ccc1N1CCN(C(=O)[C@@H](Cc2ccc(Cl)cc2Cl)N2CCNCC2=O)CC1
II: CC(C)C[C@H](N)c1cc(C(F)(F)F)ccc1N1CCN(C(=O)[C@@H](Cc2ccc(Cl)cc2)N2CCCC2=O)CC1
**Query** Field: lower recorded concentration at 4 h (choose I or II ) When you have decided, please share the label of that item.
**Result** I

---

# TGT: Melanocortin receptor 4 (Homo sapiens)
# Sequence (P32245 whole entry): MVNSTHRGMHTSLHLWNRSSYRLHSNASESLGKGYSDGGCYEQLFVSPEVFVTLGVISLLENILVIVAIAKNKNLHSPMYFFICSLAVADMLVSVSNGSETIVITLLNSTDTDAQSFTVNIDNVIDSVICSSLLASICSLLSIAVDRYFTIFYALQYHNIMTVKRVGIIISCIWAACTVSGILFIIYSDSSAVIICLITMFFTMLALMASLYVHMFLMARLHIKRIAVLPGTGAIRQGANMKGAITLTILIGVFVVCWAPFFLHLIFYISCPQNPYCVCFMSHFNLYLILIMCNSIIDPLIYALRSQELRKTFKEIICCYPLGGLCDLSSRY
# EXPERIMENTAL PROTOCOL: Displacement of [125I]NDP-MSH from MC4R receptor in HEK293 cells
MEASURE NAME: Ki (nM)

[[record]]
smiles_code = "CC(=O)N[C@H](Cc1ccc(Cl)cc1Cl)C(=O)N1CCN(c2c(F)cccc2[C@@H](N)CC(C)C)CC1"
measure_name = "Ki"
unit_abbrev = "nM"
reading = 7.5

[[record]]
smiles_code = "CC(C)C[C@H](N)c1cccc(F)c1N1CCN(C(=O)[C@@H](Cc2ccc(Cl)cc2Cl)NC(=O)CCN)CC1"
measure_name = "Ki"
unit_abbrev = "nM"
reading = 0.8


P: CC(C)C[C@H](N)c1cc(C(F)(F)F)ccc1N1CCN(C(=O)[C@@H](Cc2ccc(Cl)cc2Cl)N2CCNCC2=O)CC1
Q: CC(C)C[C@H](N)c1cc(C(F)(F)F)ccc1N1CCN(C(=O)[C@@H](Cc2ccc(Cl)cc2Cl)NC(=O)CN)CC1
R: CC(C)C[C@H](N)c1cc(C(F)(F)F)ccc1N1CCN(C(=O)[C@@H](Cc2ccc(Cl)cc2Cl)NC(=O)CCN)CC1
S: CC(C)C[C@@H](N)c1cccc(C(F)(F)F)c1N1CCN(C(=O)[C@@H](Cc2ccc(Cl)cc2Cl)NC(=O)CN)CC1
**Query** Could you please sort these 4 entries by Ki from high to low? Would you mind listing the labels in the order requested?
**Result** S, P, Q, R

---

# EXPERIMENTAL PROTOCOL: in vivo
# RECORDED CONDITIONS: C57BL/6J, mouse, iv, 5 mg/kg
MEASURE NAME: half-life (h)

I: CC(C)C[C@H](N)c1cc(C(F)(F)F)ccc1N1CCN(C(=O)[C@@H](Cc2ccc(Cl)cc2Cl)N2CCNCC2=O)CC1
II: CC(C)C[C@H](N)c1cc(C(F)(F)F)ccc1N1CCN(C(=O)[C@@H](Cc2ccc(Cl)cc2)N2CCCC2=O)CC1
**Query** Endpoint returns the identifier whose half-life is numerically larger, either I or II . Kindly give the label for the entry you pick.
**Result** I
